- target-system: T1, human PD-L1 protein (soluble) (human, UniProt Q9NZQ7 19-239)
- T1 construct: also called PD-L1 (R&D Systems); His-tagged PD-L1 protein
- T1 sequence (Q9NZQ7 19-239 limits assumed): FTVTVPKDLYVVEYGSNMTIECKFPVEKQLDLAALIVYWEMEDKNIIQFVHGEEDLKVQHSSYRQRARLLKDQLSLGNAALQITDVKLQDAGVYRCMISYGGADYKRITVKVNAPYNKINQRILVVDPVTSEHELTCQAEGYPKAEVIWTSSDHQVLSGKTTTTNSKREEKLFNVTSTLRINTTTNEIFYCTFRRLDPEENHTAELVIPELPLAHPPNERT
- measurement-description: SPR, mAb captured on anti-human IgG Fc, PD-L1 as analyte;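 also: array SPR with mAb supernatants captured at several densities, PD-L1 injected for 5 min then 15 min dissociation, non-regenerative kinetic series, double-referenced against interspot surface and blank injection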
pKd: −log10 of the molar value.
Label 1.0 when pKd >= 7; otherwise 0.0.

INSERT INTO results (binder, label) VALUES
  ('antibody A15 (antibody, V domains shown, Tested as full-length mAb made in CHO cells; also called L15H15) VH: QLQLQESGPGLVKPSETLSLTCTVSGGSFNRSNYYWGWIRQPPGKGLEWIGSIYYSGSTYYNPSLKSRLTISADTSKTQFSLKRNSVTAADTAVYYCAREDIVVVPAAQPPHFYFGMDVWGQGTTVTVSS VL: DIQMTQSPSSLSASVGDRVTITCRASQGIRNDLGWYQQKPGKAPKRLIYAASSLQSGVPSRFSGSGSGTEFTLTISSLQPEDFATYYCLQHDSYPLTFGGGTKVEIK', 0.0),
  ('antibody A17 (antibody, V domains shown, Tested as full-length mAb made in CHO cells; also called L17H17) VH: QVQLQESGPGLVKPSETLSLTCTVSGGSISGYSWSWIRQPPGKGLEWIGYIYYSGSTNNNPSLKSRVTISVDTSKNQFSLKLSSVTAADTAVYFCARDDGIAVAGYYFYYGLDVWGQGTTVTVSS VL: DIQMTQSPSSLSASVGDRVTITCRASQGIRNDLGWYQQKPGKAPKRLIYAASSLQSGVPSRFSGSGSGTEFTLTISSLQPEDFATYYCLQHNTYPWTFGQGTKVEIK', 0.0),
  ('antibody A7 (antibody, V domains shown, Tested as full-length mAb made in CHO cells; also called L7H7) VH: QVQLQESGPGLVKPSETLSLTCTVSGGSISSYYWSWIRQPPGKGLEWIGYIFYSGSTNYNPSLKSRVTISVDTSKNQFSLKLSSVTAADTAVYFCARDNWHDGGVDYWGQGTLVTVSS VL: EIVMTQSPTTLSLSPGERATLSCRASQSVSSSYLSWYQQKPGQAPRLLIYGASTRATGIPARFSGSGSGTDFTLTISSLQPEDFAVYYCQQDYNLRTFGQGTKVEIK', 1.0),
  ('antibody A9 (antibody, V domains shown, Tested as full-length mAb made in CHO cells; also called L9H9) VH: QVQLVESGGGVVQPGRSLRLSCAASGFTFSSYGMHWVRQAPGKGLEWVAVIWFDGNNKYYADSVKGRFTISRDNSKNTLYLQMNSLRAEDTAVYYCARDVTTVPFDYWGQGTLVTVSS VL: EIVMTQSPATLSLSPGERATLSCRASQSVSSSYLSWYQQKPGQAPRLLMYGASTRATGIPARFSGSGSGTDFTLTISSLQPEDFAVYYCQQDYNLPYTFGQGTKLEIK', 1.0);
